Measured values drawn from the supplement of paper PMC3937590 for this set.

test system: MDAMB361; assay: -log10 GI50 (growth inhibition 50%) (-log10(M)); higher = more potent growth inhibition
READOUT_TYPE: -log10 GI50
Output: the number by itself.

| MOLECULE | NUMERIC_RESULT |
| --- | --- |
| COc1cc([C@@H]2c3cc4c(cc3[C@@H](O[C@@H]3O[C@@H]5CO[C@@H](C)O[C@H]5[C@H](O)[C@H]3O)[C@H]3COC(=O)[C@H]23)OCO4)cc(OC)c1O [Etoposide] | 4.85 |
| O=c1[nH]c2ccccc2n1C1CCN(Cc2ccc(-c3[nH]c4cc5ncnc5cc4nc3-c3ccccc3)cc2)CC1 | 6.06 |
| CO[C@H]1C[C@@H]2CC[C@@H](C)[C@@](O)(O2)C(=O)C(=O)N2CCCC[C@H]2C(=O)O[C@H]([C@H](C)C[C@@H]2CC[C@@H](OC(=O)C(C)(CO)CO)[C@H](OC)C2)CC(=O)[C@H](C)/C=C(\C)[C@@H](O)[C@@H](OC)C(=O)[C@H](C)C[C@H](C)/C=C/C=C/C=C/1C | 6.56 |

Challenge: Input "Cc1cc(Nc2cc(N3CCN(C)CC3)nc(Sc3ccc(NC(=O)C4CC4)cc3)n2)n[nH]1" , output reported -log10 GI50.
Response given: 5.1

Challenge: Read the entry "C[C@]12O[C@H](C[C@]1(O)CO)n1c3ccccc3c3c4c(c5c6ccccc6n2c5c31)CNC4=O" and write its reported -log10 GI50.
Response given: 6.45

Challenge: Please give measured -log10 GI50 of the following entry: "CCn1cc(-c2ccnc3[nH]c(-c4cccc(CN(C)C)c4)cc23)c(-c2ccc(NC(=O)N(C)C)cc2)n1"
Response given: 5.22

Challenge: Give me measured -log10 GI50, please, for this molecule: "CC(=O)NCC(=O)N1[C@@H]2CC[C@H]1c1ccc(Nc3ncc(C(F)(F)F)c(NC4CCC4)n3)cc12"
Response given: 5.23
